Target: T1, hFc-tagged human 4-1BB extracellular domain protein (4-1BB-hFc) (human, UniProt Q07011 24-186, limits assumed)
T1 construct: also called immunogen A; 4-1BB^ECD-hFc; not shown: human IgG Fc fragment (hFc) of the pCpC vector
Experiment: ELISA: human 4-1BB-hFc coated at 1.0 µg/mL, antibody titrated, HRP secondary antibody, OD450
From the text: […]
Let's look at some binders and their measured EC50 (read off the curve).

Completed entries (count: 5):
binder="119B6G5 (antibody, V domains shown) VH: EVQLLESGGGLVQPGGSLRLSCAASGFTFSNYAMSWVRQGPGKGLEWVSTIIGSGDSTYYTDSVKGRFTISRDNSKNTLFLQMNSLRAEDTAVYYCARDKSGWYYFDYWGQGTLVTVSS VL: DIQMTQSPSTLSASVGDRVTITCRASQSISNWLAWYQQKPGKAPKLLIYKASSLESGVPSRFSGSGSGTEFTLTISSLQPDDFATYYCQQYNDYFPITFGQGTRLEIK" observed_result="~0.02 µg/mL"
binder="170D7F2 (antibody, V domains shown) VH: QVQLVQSGAEVKKPGASVKVSCKASGYTFTSYDINWVRQATGQGLEWMGWMNPNSGNTGYAQKFQGRVTMTRNTSISTAYMELSSLRSEDTAVYYCARETGPFDYWGQGTLVTVSS VL: DIQMTQSPSSLSASVGDRVTITCRASQRINNYLNWYQQKPGKAPKLLIYGASSLQSGVPSRFSGSGSGTDFTLTISSLQPEDFATYYCQQSYSTPFTFGPGTKVDIK" observed_result="~0.02 µg/mL"
binder="11H10C9 (antibody, V domains shown) VH: QVQLVESGGGVVQPGRSLRLSCAASGFTFSSYAMHWVRQAPGKGLEWVAIIWYDGSNQYYADSVKGRFTISRDNSMNTLYLQMNSLRAEDTAVYYCARVEQWLVSYFDFWGQGTLVTVSS VL: EIVMTQSPATLSVSPGERATLSCRASQSVSSNLAWYQQKPGQVPRLLIYGASTRATGIPARFSGSGSGTEFTLTISSLQSEDFAVYYCQQYNNWPTFGGGTKVEIK" observed_result="~0.02 µg/mL"
binder="15G10D4 (antibody, V domains shown) VH: QVQLVESGGGVVQPGRSLRLSCAASGFSFSSYAMHWVRQAPGKGLEWVAIIWYDGSNQYYADSVKGRFTISRDNSKNTLYLQMNSLRAEDTAVYYCARVKQWLVSYFDYWGQGTLVTVSS VL: EIVMTQSPATLSVSPGERATLSCRASQSVSSNLAWYQQKPGQVPRLLIYGASTRATGIPARFSGSGSGTEFSLIISSLQSEDFAVYYCQQYNNWPTFGGGTKVEIK" observed_result="~0.02 µg/mL"
binder="113F6C6 (antibody, V domains shown, also called 4-1BB fully human antibody 113F6C6; 113F6F6) VH: QVQLVESGGGVVQPGRSLRLSCAASGLTFSSYGMHWVRQAPGKGLEWVAVIWYDGSNKYYADSVKGRFTISRDNSKNTLYLQMNSLRAEDTAVYYCAREEVLWFGELSYNYYYGMDVWGQGTTVTVSS VL: DIQMTQSPSSLSASVGDRVTITCRASQGISNYLAWYQQKPGKVPKLLIYAASTLQSGVPSRFSGSGSGTDFTLTISSLQPEDVATYYCQKYNSVPLTFGGGTKVEIK" observed_result="~0.02 µg/mL"

Form: binder = 172E3E3 (antibody, V domains shown) VH: QVQLQESGPGLVKPSGTLSLTCAVSGGSISSSNWWSWVRQPPGKGLEWIGEIYHSGSTNYNPSLKSRVTISVDKSKNQLSLNLSSVTAADTAVYYCARQGGVAGTLYWYFDLWGRGTLVTVSS VL: DIVMTQSPLSLPVTPGEPASISCRSSQGLLHSNGYNYLDWYLQKPGQSPQLLIYLGSNRASGVPDRFIGSGSGTDFTLKIRRVEAEDVGVYYCMQVLQTPWTFGQGTKVEIK ; EC50 (read off the curve) = ~0.02 µg/mL

Form: binder = 118F3A2 (antibody, V domains shown) VH: QVQLQQWGAGLLKPSETLSLTCGVYGGSFSTNYWSWIRQSPGKGLEWIGEINHSGNTEYNPSLKSRLTISIDTSKNQFSLKLTSVTAADTAVYYCARMGYHSPSFDFWGQGVLVTVSS VL: KIVMTQSPATLSVSPGERATLPCRVSQGIGSNLAWYQQKPGQAPRLLIYGASTRATGVPARFSGSGSGSEFTLTISSLQSEDLALYYCQQYNNWPLTFGGGTKVEIK ; EC50 (read off the curve) = ~0.03 µg/mL

Form: binder = 57B3D10 (antibody, V domains shown, also called 4-1BB fully human antibody 57B3D10) VH: QVQLQESGPGLVKPSETLSLTCTVSGGSISSYYWSWIRQPPGKGLEWIGYIYYSGSTNYNPSLKSRVTISVDTSKSQFSLKLTSVTAADTAVYYCAKDSDYYGSGSYSYWYFDLWGRGTLVTVSS VL: EIVMTQSPATLSVSPGERATLSCRASQSVSSNLAWYQQKPGQAPRLLIYGASTRAPGIPARFSGSGSGTEFTLTISSLQSEDFAVYYCQQYNNWPLTFGGGTKVEIK ; EC50 (read off the curve) = ~0.02 µg/mL

Form: binder = 52F4G2 (antibody, V domains shown) VH: QVQLQESGPGLVKPSETLSLTCAVSGYSISSGYYWGWIRQPPGKGLEWIGSIFHSGSSYYNPSLKSRVTISVDTSKNQFSLKLRSVTAADTAVYYCARESSGWNCFDYWGQGTLVTVSS VL: DIQMTQSPSTLSASVGDRVTITCRASQTISTWLAWYQQKPGKAPKLLIYKASNLESGVPSRFSGSGSGTEFTLTISSLQPDDFATYYCQQYNSYSITFGQGTRLEIK ; EC50 (read off the curve) = ~0.007 µg/mL
